Target: T1, human ICOS (human, UniProt Q9Y6W8 21-199)
T1 construct: The cell that carries it is named under assay; also called huICOS; CD278
T1 sequence: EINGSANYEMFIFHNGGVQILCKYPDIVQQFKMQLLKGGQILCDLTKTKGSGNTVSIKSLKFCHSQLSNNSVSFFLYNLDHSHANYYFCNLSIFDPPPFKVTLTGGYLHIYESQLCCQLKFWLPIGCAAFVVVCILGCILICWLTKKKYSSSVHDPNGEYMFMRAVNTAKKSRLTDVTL
Experiment: flow cytometry, ICOS+ CHO cells, 120 nM anti-ICOS IgG pre-bound, then ICOSL (competitor) 120 nM
Result Type: MFI (A488), IgG + ICOSL (MFI)

INSERT INTO results (binder, reported) VALUES
  ('Molecule 18 (rbIgG of 1138) (antibody, V domains shown, Rabbit IgG format; also called ICOS (1138); clone 1138) VH: QSLEESGGDLVKPGASLTLTCTASGFDLSSYYYMCWVRQAPGKGLEWIACIYADIYGGTTHYASWAKGRFTISKTSSTTVTLQMTSLTAADTATYFCAREDGSRYGGSGYYNLWGPGTLVTVSS VL: ALVMTQTPSSVSAAVGGTVTINCQASQNIYSNLAWYQQKPGQPPKLLIYAASYLTSGVSSRFKGSGAGTQFTLTISGVECADAATYYCQQGHTTDNIDNAFGGGTEVVVKG', 6210);
